Provenance of the data: patent US9951359B2

# System: Thermoanaerobacter pseudethanolicus 39E (Teth39E)
# EXPERIMENT DESCRIPTION: Growth of Teth39E with furan aldehydes (optical density at 600 nm)
# Assay type: cell-based
# ASSAY SETUP: Thermoanaerobacter pseudethanolicus, after 12 h, read-out: furan aldehyde concentration which resulted in 50% inhibition of growth (IC50)
RECORDED METRIC: pIC50
Keep in mind that pIC50 stands for -log10 of concentration in molar terms.

Return value of pIC50 for input O=Cc1ccco1 , no commentary.
1.52
